- Test system: MS2 coat protein
- assay-info: apparent KD of MS2 coat protein; higher = weaker reporter binding
- condition-details: Eterna round: R107; input ligand: tryptophan 2.4 mM
Output schema: class label derived from apparent KD of MS2 coat protein. Mapping: lo = under 30 nM, mid = from 30 nM up to 60 nM, hi = 60 nM and over

{"columns": ["primary-sequence", "category"],
 "data": [
  ["AUGUCGUUGAAUAUAGCGGCUUGGUGUGAUACCAGAAUGAUCUAAUUCCCUUGGCAGCAUUACAUGAGGAUCACCCAUGUUCCAG [SSTheo A #21]", "mid"],
  ["GCUAGGUCAUCGGCCGCCACUAACGACGGUUCGAACAUGAGGAUCACCCAUGUGCCACAUGCGCAUAGGACCGGGAUGACCUAGC [SSTB NP+V+V2 #6]", "lo"],
  ["UGACAUUGCUGCGAUACCAGACAUGAGGAUCACCCAUGUACCAAGGUAACCGAAAGGCAUGUCCCUUGGCAGCGCAGCAAUGUCU [MAT - Exclusion Theophlline B - Mod of Eli - D13]", "lo"]
]}

Q: Would you mind sorting GCUAGCCGAAAGGCUAGCAAGGCUACAGAAGGAGCGUGCGAAAGCACAGGUAGGUCGCUGAGCUUGAGGAUCACCCAAGUUGCCU [SSAA - Alter Amptam #1 V+V2] into the appropriate category?
Result: hi

Q: For UAGUUAGCGGCGGCCGCCACUCGAGAUAUAACAUGAUAUCAUAACAUGAGGAUCACCCAUGUCACGAGGACCGGGCCGAUCUUCA [Same State Typptophan B GF6] then?
Result: mid

Q: For GUUAUGAUAAGAAGGAGCGUCGAAAAUGGGUAAACAUGAGGAUCACCCAUGUAAAGGGAACGACAGGUAGGUCGCUUAUUAUAAC [AstromonsSSArgB#20] then?
Result: hi

Q: For GUUGAGACCUCGGCCGCCACUCGCCAUGAGGAUCUCCCAUGUAACAUGAGGAUCACCCAUGUACUGAGGACCGGGAGGUCCUAGU [Same State Tryptophan B GF 15] then?
Result: hi

Q: For UUUUUUAUUGGGUAUAGAAUAUUAACUGAAGGAGCGUGGUAUUACACAGGUAGGUCGCAGUUUUUACAUGAGGAUCACCCAUGUU [JR_SSArginiA_Sub010] then?
Result: mid

Q: For AAAAGUAGGUCCAAUAAAACUACAUGUGAAGGAGCGCCCGAAAGGGCAGGUAGGUCGCACAUGAGGAUCACCCAUGUCCUACAAA [ArgEX 7 #OpenEnded] then?
Result: hi

Q: For ACAUGAGGAUCACCCAUGUAAUCAUCAGAAGGAGCGUGGAAUAACACAGGUAGGUCGCUGAUGUUAUAUUAAUCUUAUUCGUAAA [JR_ExcArginiA_Sub003] then?
Result: lo

Q: For AAUAACAAGAGGAUCACCCUUGUAAAAGAUACCAGAGUGAUGAUCCUCCCUUGGCAGCUUAACGCUGAUUGAUUACAAUCAGCGA then?
Result: mid
